Data credit: PubChem BioAssay AID1963973

Overview of reported IC50 across a group of molecules:
- Test system: 883617-216-R-J1-PDC tumor spheroids, viability;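 further: spheroids exposed to agents for 7 days before the viability read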
- assay_protocol: Anticancer human tumor 883617-216-R-J1-PDC patient-derived bladder carcinoma cell line growth inhibition [PI3K]
- setup_conditions: curve of first compound; second compound 0.0316 µM; spheroids with HUVEC and MSC

Study these solved cases before continuing.
1. CC(C)NCC(C(=O)N1CCN(c2ncnc3c2C(C)CC3O)CC1)c1ccc(Cl)cc1 (stereo unspecified) + COc1c(OCCCN2CCOCC2)ccc2c3n(c(=NC(=O)c4cnc(N)nc4)nc12)CCN3 = < 0.0316 µM
2. Cn1nccc1Nc1nccc(-c2ccn(C(CO)c3ccc(Cl)c(F)c3)c(=O)c2)n1 (stereo unspecified) + CC(Nc1ncnc2nc[nH]c12)c1cc2cccc(Cl)c2c(=O)n1-c1ccccc1 = 7.98 µM
3. CC1(C)CCC(Nc2ncc(C(F)(F)F)c(-c3c[nH]c4c(P(C)(C)=O)c(C#N)ccc34)n2)CN1 (stereo unspecified) + CC(Nc1ccc2c(c1)OCCn1cc(N3C(=O)OCC3C(F)F)nc1-2)C(N)=O = < 0.0316 µM

Provide IC50 value for the following molecule: CCN1CCN(Cc2ccc(Nc3ncc(F)c(-c4cc(F)c5nc(C)n(C(C)C)c5c4)n3)nc2)CC1 + CC(Nc1ccc2c(c1)OCCn1cc(N3C(=O)OCC3C(F)F)nc1-2)C(N)=O
0.122 µM

Provide IC50 value for the following molecule: CNC(=O)c1ccc(N2C(=S)N(c3ccc(C#N)c(C(F)(F)F)c3)C(=O)C2(C)C)cc1F + COc1c(OCCCN2CCOCC2)ccc2c3n(c(=NC(=O)c4cnc(N)nc4)nc12)CCN3
< 0.0316 µM

Provide IC50 value for the following molecule: C#Cc1c(F)ccc2cc(O)cc(-c3ncc4c(N5CC6CCC(C5)N6)nc(OCC56CCCN5CC(F)C6)nc4c3F)c12 (stereo unspecified) + Cc1nc(NC(=O)N2CCCC2C(N)=O)sc1-c1ccnc(C(C)(C)C(F)(F)F)c1
> 10 µM

Provide IC50 value for the following molecule: Cn1ncnc1[C@H]1c2n[nH]c(=O)c3cc(F)cc(c23)N[C@@H]1c1ccc(F)cc1 + CC(Nc1ccc2c(c1)OCCn1cc(N3C(=O)OCC3C(F)F)nc1-2)C(N)=O
0.00536 µM

Provide IC50 value for the following molecule: Cn1ncnc1[C@H]1c2n[nH]c(=O)c3cc(F)cc(c23)N[C@@H]1c1ccc(F)cc1 + CC(Nc1ncnc2nc[nH]c12)c1cc2cccc(Cl)c2c(=O)n1-c1ccccc1
> 0.1 µM

Provide IC50 value for the following molecule: CC(C)n1nc(-c2ccc3oc(N)nc3c2)c2c(N)ncnc21 + COc1c(OCCCN2CCOCC2)ccc2c3n(c(=NC(=O)c4cnc(N)nc4)nc12)CCN3
< 0.000316 µM

Provide IC50 value for the following molecule: C[C@@H](NC(=O)c1ncnc(N)c1Cl)c1ncc(C(=O)Nc2cc(C(F)(F)F)c(Cl)cn2)s1 + Cc1nc(NC(=O)N2CCCC2C(N)=O)sc1-c1ccnc(C(C)(C)C(F)(F)F)c1
> 10 µM

Provide IC50 value for the following molecule: C=CC(=O)N1CCN(c2nc(=O)n(-c3c(C)ccnc3C(C)C)c3nc(-c4c(O)cccc4F)c(F)cc23)C(C)C1 (stereo unspecified) + CC(Nc1ncnc2nc[nH]c12)c1cc2cccc(Cl)c2c(=O)n1-c1ccccc1
> 10 µM
